assay: 14-day daily oral repeated-dose DRF study in cynomolgus monkeys (mesylate salt); type: in vivo; settings: cynomolgus monkey, plasma, po, 0.5 mg/kg, 0.5 mg/kg (Gr. 1), Day 7
readout.name: AUC(0-t)
Please format your answer as a value with the unit trailing.

Could you tell me which AUC(0-t) is on file for CC(C)C[C@@H]1NCCN([C@@H](CC(C)C)C(=O)N2CCC3(C[C@@H]2C)OCC(CN2CCCC2)CO3)C1=O (stereo partly shown) ?
1.2 ng·h/mL

* * *

assay: Single dose oral gavage or intravenous PK in female cynomolgus monkeys, plasma; type: in vivo; conditions: female, cynomolgus monkey, plasma; IV 0.2 mg/kg
readout.name: Cmax (ng/mL)
Please reply with the bare figure in ng/mL and do not write the unit itself.

Entry CC(C)C[C@@H]1NCCN([C@@H](CC(C)C)C(=O)N2CCC3(C[C@@H]2C)OCC(CN2CCCC2)CO3)C1=O (stereo partly shown) [Compound 1] has what Cmax?
47.6

* * *

Test: 14-day daily oral repeated-dose DRF study in cynomolgus monkeys (mesylate salt)
Format: in vivo
Settings: both sexes, cynomolgus monkey, plasma, po, 8 mg/kg, 8 mg/kg (Gr. 3), Day 1
Procedure: The objective of this exploratory study was to assess the TK profile of Compound 1 when repeatedly administered via the oral route to cynomolgus monkeys. Compound 1 (mesylate salt) administration in this dose-range-finder study was intended once daily for up to 14 consecutive days by oral gavage to groups of naïve cynomolgus monkeys (n=1/sex/group) at dose levels of 0.5, 4, 8, or 12 mg Compound 1 per kg bodyweight and day, using a staggered approach. The vehicle was 0.5% Methylcellulose in water. […]
readout.name: Cmax (ng/mL)
Number in ng/mL, nothing else.

Reported Cmax, molecule CC(C)C[C@@H]1NCCN([C@@H](CC(C)C)C(=O)N2CCC3(C[C@@H]2C)OCC(CN2CCCC2)CO3)C1=O (stereo partly shown) [Compound 1] : ____
21.7

* * *

assay: 28-day once weekly oral repeated-dose DRF study in cynomolgus monkeys (mesylate salt); assay type: in vivo; conditions: female, cynomolgus monkey, blood, po, 60 mg/kg, F, Day 22
readout.name: Tmax (h)
Dear colleague, please return just the value in h, with no unit written.

Need Tmax, item CC(C)C[C@@H]1NCCN([C@@H](CC(C)C)C(=O)N2CCC3(C[C@@H]2C)OCC(CN2CCCC2)CO3)C1=O (stereo partly shown) [Compound 1]
2

* * *

assay: Single dose oral and intravenous PK in CD-1 mice (mesylate salt), blood; type: in vivo; settings: male, CD-1, mouse, whole blood; intravenous 5 mg/kg
readout.name: Tmax (min)
All answers are understood in min, so give the number only.

Tmax for CC(C)C[C@@H]1NCCN([C@@H](CC(C)C)C(=O)N2CCC3(C[C@@H]2C)OCC(CN2CCCC2)CO3)C1=O (stereo partly shown) [Compound 1] ?
10.2

* * *

Test: Single dose oral gavage or intravenous PK in female cynomolgus monkeys, plasma
Format: in vivo
Conditions: female, cynomolgus monkey, plasma; po 4 mg/kg
Method: The objective of the study was to determine the PK profile of Compound 1 following a single oral gavage or intravenous injection administration on 5 different occasions to female cynomolgus monkeys. Compound 1, was administered as consecutive single doses on 5 occasions, separated by a washout period, by either oral gavage (4 and 12 mg/kg, Days 1 and 8) or by slow bolus intravenous (IV) injection (0.2 and 0.6 mg/kg, Days 15 and 22) to a group of female monkeys. […]
readout.name: AUC(0-t) (ng·h/mL)
Only the number, expressed in ng·h/mL, is required.

Recorded AUC(0-t) for CC(C)C[C@@H]1NCCN([C@@H](CC(C)C)C(=O)N2CCC3(C[C@@H]2C)OCC(CN2CCCC2)CO3)C1=O (stereo partly shown) , please?
16.9

* * *

test: Single dose oral and intravenous PK in CD-1 mice (mesylate salt), blood; format: in vivo; settings: male, CD-1, mouse, whole blood; oral 20 mg/kg
readout.name: half-life
Just so you know, I need the unit written after the number.

Reported half-life for CC(C)C[C@@H]1NCCN([C@@H](CC(C)C)C(=O)N2CCC3(C[C@@H]2C)OCC(CN2CCCC2)CO3)C1=O (stereo partly shown) : what is it?
3.2 h

* * *

test: 5-day daily oral repeated-dose pilot study in cynomolgus monkeys (mesylate salt); type: in vivo; conditions: both sexes, cynomolgus monkey, serum, po, all groups, Day 5
readout.name: Tmax

# query: Tmax of entry CC(C)C[C@@H]1NCCN([C@@H](CC(C)C)C(=O)N2CCC3(C[C@@H]2C)OCC(CN2CCCC2)CO3)C1=O (stereo partly shown)
0.5 to 1.75 h

* * *

test: Single dose oral gavage or intravenous PK in female cynomolgus monkeys, plasma; format: in vivo; settings: female, cynomolgus monkey, plasma; po 12 mg/kg
readout.name: Tmax (min)
Number in min, nothing else.

Tell me the measured Tmax of CC(C)C[C@@H]1NCCN([C@@H](CC(C)C)C(=O)N2CCC3(C[C@@H]2C)OCC(CN2CCCC2)CO3)C1=O (stereo partly shown) [Compound 1] , please.
49.8

* * *

test: 28-day once weekly oral repeated-dose DRF study in cynomolgus monkeys (mesylate salt); format: in vivo; conditions: male, cynomolgus monkey, blood, po, 60 mg/kg, M, Day 1
readout.name: Cmax (ng/mL)
Give the quantity in ng/mL, number only.

For the compound CC(C)C[C@@H]1NCCN([C@@H](CC(C)C)C(=O)N2CCC3(C[C@@H]2C)OCC(CN2CCCC2)CO3)C1=O (stereo partly shown) [Compound 1] , what Cmax is on record?
449

* * *

experiment: Single dose oral gavage or intravenous PK in female cynomolgus monkeys, plasma; format: in vivo; conditions: female, cynomolgus monkey, plasma; Day 15 (IV 0.2 mg/kg); read-out: mean volume of distribution (Vz)
readout.name: Vd (L/kg)
# value in L/kg; strip the unit string

Please look up its Vd: CC(C)C[C@@H]1NCCN([C@@H](CC(C)C)C(=O)N2CCC3(C[C@@H]2C)OCC(CN2CCCC2)CO3)C1=O (stereo partly shown) [Compound 1]
17.4

* * *

assay: 14-day daily oral repeated-dose exploratory study in CD-1 mice (mesylate salt); format: in vivo; details: female, CD-1, mouse, in vivo, po, 5 mg/kg, F, Day 14
readout.name: Cmax (ng/mL)
Return type: number; implicit unit ng/mL.

Tell me the measured Cmax of CC(C)C[C@@H]1NCCN([C@@H](CC(C)C)C(=O)N2CCC3(C[C@@H]2C)OCC(CN2CCCC2)CO3)C1=O (stereo partly shown) , please.
115

* * *

test: 28-day once weekly oral repeated-dose DRF study in cynomolgus monkeys (mesylate salt); assay type: in vivo; conditions: male, cynomolgus monkey, whole blood, po, 45 mg/kg, M, Day 1; read-out: AUC0-Tlast
readout.name: AUC(0-t) (ng·h/mL)
Please give a number only; it is taken to be in ng·h/mL.

I'd like to know its AUC(0-t). The compound in question is CC(C)C[C@@H]1NCCN([C@@H](CC(C)C)C(=O)N2CCC3(C[C@@H]2C)OCC(CN2CCCC2)CO3)C1=O (stereo partly shown)
2950

* * *

experiment: 14-day daily oral repeated-dose DRF study in cynomolgus monkeys (mesylate salt); type: in vivo; settings: both sexes, cynomolgus monkey, plasma, po, 12 mg/kg, 12 mg/kg (Gr. 2), Day 7
readout.name: Tmax (h)
Supply the numeric figure in h, leaving out any unit text.

Look at this compound and give its reported Tmax. CC(C)C[C@@H]1NCCN([C@@H](CC(C)C)C(=O)N2CCC3(C[C@@H]2C)OCC(CN2CCCC2)CO3)C1=O (stereo partly shown)
1

* * *

assay: 28-day once weekly oral repeated-dose DRF study in CD-1 mice (mesylate salt), plasma; type: in vivo; conditions: male, CD-1, mouse, plasma, po, 300 mg/kg, 300 mg/kg/week, 2nd dose (Week 2); read-out: AUC0-8h
readout.name: AUC(0-t)
Enter the number, and then the unit.

Need AUC(0-t) of CC(C)C[C@@H]1NCCN([C@@H](CC(C)C)C(=O)N2CCC3(C[C@@H]2C)OCC(CN2CCCC2)CO3)C1=O (stereo partly shown) , thanks.
13600 ng·h/mL

* * *

test: Single dose oral and intravenous PK in CD-1 mice (mesylate salt), blood; assay type: in vivo; conditions: male, CD-1, mouse, whole blood; intravenous 50 mg/kg
readout.name: Tmax
Please append the unit to your numeric answer.

Returns the measured Tmax for the input compound. Input: CC(C)C[C@@H]1NCCN([C@@H](CC(C)C)C(=O)N2CCC3(C[C@@H]2C)OCC(CN2CCCC2)CO3)C1=O (stereo partly shown)
10.2 min

* * *

Experiment: 5-day daily oral repeated-dose pilot study in Beagle dogs (mesylate salt)
Type: in vivo
Settings: both sexes, Beagle, dog, plasma, po, 1.5 mg/kg
Procedure: The objective of the study was to determine the TK profile of Compound 1, following its daily administration through oral gavage for 5 consecutive days to Beagle dogs. Compound 1 (mesylate salt) was administered daily to groups of dogs (n=2/sex/group) by oral gavage (PO) for 5 consecutive days at doses of 1.5 and 2 mg/kg/day. The vehicle was 0.5% (w/v) methylcellulose in sterile water. […]
readout.name: Tmax

// returns reported Tmax for input CC(C)C[C@@H]1NCCN([C@@H](CC(C)C)C(=O)N2CCC3(C[C@@H]2C)OCC(CN2CCCC2)CO3)C1=O (stereo partly shown)
~30 min
